B1: library; a variant is named by its letters at N, in order (parent)
chain: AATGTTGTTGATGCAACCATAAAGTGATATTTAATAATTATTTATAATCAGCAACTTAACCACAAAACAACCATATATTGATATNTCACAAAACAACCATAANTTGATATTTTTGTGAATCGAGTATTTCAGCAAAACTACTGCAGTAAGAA

# Variants of: B1
# Assay Notes: relative integration efficiency (T-LR orientation) vs wild-type transposon end (log2 (normalized fold change)); transposon end mutated: left end; higher = more efficient transposition
# Condition Parameters: with VchCAST RNA-guided transposition machinery (E. coli BL21(DE3) host, lacZ target)
Recorded Endpoint: relative integration efficiency (log2)
One number for each entry.

Below, each entry is followed by its recorded relative integration efficiency (log2) result.
                             variant_string                       recorded_endpoint  meas_value
0  TA A70C T76A T84A C87A T104A T110A T113A  relative integration efficiency (log2)       0.319
1       TA T76A A77G C87T T104A T110A T113A  relative integration efficiency (log2)        0.28
2                    CG T28A A29T T30A T31A  relative integration efficiency (log2)      -0.974
3                        CG A33C C87A T113G  relative integration efficiency (log2)      0.0172

// each variant listed below needs its relative integration efficiency (log2)
1. CG T9A G10C A11T T12A
2. CG G122T A123C G124T T125G
3. CA G24A T30A A96C T110A T113A
4. CG A21T A22T A23T G24C
5. CG T76G A77C
6. CG A46T A47T
7. CG T111G T112G

1: -4.24; 2: 0.252; 3: -0.0456; 4: -0.979; 5: -0.497; 6: 0.446; 7: -0.977

// each variant listed below needs its relative integration efficiency (log2)
1. CG C72A
2. CG A119C
3. CG G10C
4. CG A50T G51C C52G A53T

[-0.613, 0.11, -1.66, -0.839]

// each variant listed below needs its relative integration efficiency (log2)
1. CG T112A T113A
2. TA A16C G24T T30A T76A A77G C87T T104G T113A
3. TA G24A T30A A70C T76A T84A C87A A96C T112G T113C
4. CC A21T A22T A23T G24C A75T T76A A77T T78A A101T A102T T104A

[-0.503, -0.204, 0.302, -2.73]

// each variant listed below needs its relative integration efficiency (log2)
1. CG T41G
2. CA A16C G24T T32G A33C A96C T112G T113C
3. CG T38A T42A T45A A47T C49A G51T C52T A54T C55T T56A T57A A59T
4. CG T43A

0.12
-1.27
-2.39
0.341

// each variant listed below needs its relative integration efficiency (log2)
1. CG C18G A19T
2. TA A22T G24T T31C A33C A70C T76A T84A C87A A96C T112G T113C
3. TA T76A A77G C87T A102T T111C T113C
4. TA A16C G24T T32G A33C A70C T76A T84A C87A T104G T113A
5. CG A46T A47T T48G C49T A50G G51A C52G A53C A54G C55G T56A C61A
6. CG A90T A91T A92T A93T
7. CG A92C A93C C94A A95C
8. CG C71G

[-1.25, -0.665, -0.406, -1.55, -1.93, -0.429, -1.74, -0.452]

// each variant listed below needs its relative integration efficiency (log2)
1. CG A109C T110G
2. CG A47T T48A
3. CG C60G

1. -1.25
2. 0.0225
3. 0.358

// each variant listed below needs its relative integration efficiency (log2)
1. CG C18G
2. TG

1: 0.0813; 2: 0.322

// each variant listed below needs its relative integration efficiency (log2)
1. CG A70C
2. CG A11G

[0.268, -0.67]
